Assay: MRT (0 to infinity) in Sprague-Dawley rat at 15 mg/kg, ip measured after 24 hrs by LC-MS/MS analysis
Type: ADME, organism-based
Settings: in vivo
Outcome measure: MRT inf (h)
Answers are plain numbers, in h.

Task item: # get_value(readout='MRT inf', item= "COc1cc(OC)c(/C=C/S(=O)(=O)Cc2ccc(OC)c(NCC(=O)NO)c2)c(OC)c1" )
Reply: 1.34

----------
Test: Metabolic stability in rat liver microsomes assessed as intrinsic clearance at 1 uM measured upto 40 mins by LC-MS/MS analysis
Assay type: ADME, Microsome
Conditions: read-out: CLH
Outcome measure: CLint scaled at 1 µM

{"columns": ["Mol smiles", "CLint scaled at 1 µM"],
 "data": [
  ["COc1cc(OC)c(/C=C/S(=O)(=O)Cc2ccc(OC)c(NC(=O)CCC(=O)NO)c2)c(OC)c1", "70.2 mL/min/kg"]
]}

# input for lookup
Task item: # get_value(readout='CLint scaled at 1 µM', item= "COc1cc(OC)c(/C=C/S(=O)(=O)Cc2ccc(OC)c(NCC(=O)NO)c2)c(OC)c1" )
Reply: 450 mL/min/kg

----------
Field: IC50. Provide a value for each of the molecules that follow.
Test system: K562
Assay: cells
Conditions: Homo sapiens, K562, 72 h
Description: Cytotoxicity against human K562 cells assessed as inhibition of cell growth incubated for 72 hrs by MTT assay
Write down the value, and be sure its unit follows.

{"columns": ["Mol smiles", "Experimental target", "Recorded result"],
 "data": [
  ["COc1cc(OC)c(/C=C/S(=O)(=O)Cc2ccc(OC)c(NCC(=O)O)c2)c(OC)c1", "K562", "150 nM"],
  ["COc1cc(OC)c(/C=C/S(=O)(=O)Cc2ccc(OC)c(NC(=O)CCC(=O)NO)c2)c(OC)c1", "K562", "20 nM"]
]}

# input for lookup
Task item: # get_value(readout='IC50', item= "COc1cc(OC)c(/C=C/S(=O)(=O)Cc2ccc(OC)c(NCC(=O)NO)c2)c(OC)c1" )
Reply: 20 nM
